Give measured total protein half-life in vivo for each item. Keep answers brief.
# measurement.notes: total protein half-life in vivo (active degradation + dilution); higher = more stable protein
# test.conditions: E. coli NCM3722 delta-clpP delta-lon delta-hslV; growth: N-lim chemostat; doubling time 6 h
Dear colleague, please return just the value in h, with no unit written.

Exercise: # get_value(readout='total protein half-life in vivo', item= MSTTWFVGADWLAEHIDDPEIQIIDARMASPGQEDRNVAQEYLNGHIPGAVFFDIEALSDHTSPLPHMLPRPETFAVAMRELGVNQDKHLIVYDEGNLFSAPRAWWMLRTFGVEKVSILGGGLAGWQRDDLLLEEGAVELPEGEFNAAFNPEAVVKVTDVLLASHENTAQIIDARPAARFNAEVDEPRPGLRRGHIPGALNVPWTELVREGELKTTDELDAIFFGRGVSYDKPIIVSCGSGVTAAVVLLALATLDVPNVKLYDGAWSEWGARADLPVEPVK )
Solution: 4.69

Exercise: Query (sequence): MPIRVPDELPAVNFLREENVFVMTTSRASGQEIRPLKVLILNLMPKKIETENQFLRLLSNSPLQVDIQLLRIDSRESRNTPAEHLNNFYCNFEDIQDQNFDGLIVTGAPLGLVEFNDVAYWPQIKQVLEWSKDHVTSTLFVCWAVQAALNILYGIPKQTRTEKLSGVYEHHILHPHALLTRGFDDSFLAPHSRYADFPAALIRDYTDLEILAETEEGDAYLFASKDKRIAFVTGHPEYDAQTLAQEFFRDVEAGLDPDVPYNYFPHNDPQNTPRASWRSHGNLLFTNWLNYYVYQITPYDLRHMNPTLD ; field requested: total protein half-life in vivo
Solution: 3.26

Exercise: Name the reported total protein half-life in vivo value associated with the sequence MDIFISKKMRNFILLAQTNNIARAAEKIHMTASPFGKSIAALEEQIGYTLFTRKDNNISLNKAGQELYQKLFPVYQRLSAIDNEIHNSGRRSREIVIGIDNTYPTIIFDQLISLGDKYEGVTAQPVEFSENGVIDNLFDRQLDFIISPQHVSARVQELENLTISELPPLRLGFLVSRRYEERQEQELLQELPWLQMRFQNRANFEAMIDANMRPCGINPTIIYRPYSFMAKISAVERGHFLTVIPHFAWRLVNPATLKYFDAPHRPMYMQEYLYSIRNHRYTATMLQHIAEDRDGTSH
Solution: 5.12

Exercise: // query total protein half-life in vivo value for entry MSKIRVLSVDDSALMRQIMTEIINSHSDMEMVATAPDPLVARDLIKKFNPDVLTLDVEMPRMDGLDFLEKLMRLRPMPVVMVSSLTGKGSEVTLRALELGAIDFVTKPQLGIREGMLAYNEMIAEKVRTAAKASLAAHKPLSAPTTLKAGPLLSSEKLIAIGASTGGTEAIRHVLQPLPLSSPALLITQHMPPGFTRSFADRLNKLCQIGVKEAEDGERVLPGHAYIAPGDRHMELSRSGANYQIKIHDGPAVNRHRPSVDVLFHSVAKQAGRNAVGVILTGMGNDGAAGMLAMRQAGAWTLAQNEASCVVFGMPREAINMGGVCEVVDLSQVSQQMLAKISAGQAIRI
Solution: 4.85

Exercise: Returns the measured total protein half-life in vivo for the input sequence. Input: MTIKNVICDIDGVLMHDNVAVPGAAEFLHGIMDKGLPLVLLTNYPSQTGQDLANRFATAGVDVPDSVFYTSAMATADFLRRQEGKKAYVVGEGALIHELYKAGFTITDVNPDFVIVGETRSYNWDMMHKAAYFVANGARFIATNPDTHGRGFYPACGALCAGIEKISGRKPFYVGKPSPWIIRAALNKMQAHSEETVIVGDNLRTDILAGFQAGLETILVLSGVSSLDDIDSMPFRPSWIYPSVAEIDVI [P0AF24]
Solution: 6.46

Exercise: Please report the recorded total protein half-life in vivo for MSTIEERVKKIIGEQLGVKQEEVTNNASFVEDLGADSLDTVELVMALEEEFDTEIPDEEAEKITTVQAAIDYINGHQA [P0A6A8] .
Solution: 7.12
